# Test system: Escherichia coli
# Protocol details: Antibacterial against Escherichia coli ATCC 10536 after 24 hrs by NCCLS M7-A6 method
# Type: functional
# Measurement setup: ATCC 10536, 24 h
As shown below, each of these compounds has a reported MIC value.
Enter your answer as a number in mM; do not include the unit.

> print(dat)
                                   compound            target  unit.text  result
1     Cc1cc(=O)oc2cc(OCCN(C(C)C)C(C)C)ccc12  Escherichia coli         mM    14.7
2  Cc1cc(=O)oc2cc(OCCN3CCCCC3C)ccc12 (configuration not stated)  Escherichia coli         mM    14.4
3  CC(=O)c1cc2c(C)cc(=O)oc2cc1OCCN1CCCCC1C (configuration not stated)  Escherichia coli         mM    26.3

Notebook: CC(=O)c1c(OCCN2CCCCC2C)ccc2c(C)cc(=O)oc12 (configuration not stated) , MIC read as 49.2

Notebook: CCN(CC)CCOc1cc2oc(=O)cc(C)c2cc1C(C)=O.Cl , MIC read as 7.1

Notebook: Cc1cc(=O)oc2cc(OCCN3CCOCC3)ccc12 , MIC read as 51.8

Notebook: CC(=O)c1cc2c(C)cc(=O)oc2cc1OCCN1CCOCC1 , MIC read as 30.2

Notebook: CC(C)N(CCOc1ccc2ccc(=O)oc2c1)C(C)C , MIC read as 46

Notebook: CCN(CC)CCOc1ccc2c(C)cc(=O)oc2c1 , MIC read as 8

Notebook: CC(=O)c1cc2c(C)cc(=O)oc2cc1OCCN1CCCCC1 , MIC read as 13.3

Notebook: CC1CCCCN1CCOc1ccc2ccc(=O)oc2c1 (configuration not stated) , MIC read as 30.9

Notebook: CC(=O)c1cc2c(C)cc(=O)oc2cc1OCCN(C)Cc1ccccc1 , MIC read as 24.3

Notebook: O=c1ccc2ccc(OCCN3CCOCC3)cc2o1 , MIC read as 36.3

Notebook: C[N+](C)(CCOc1ccc2ccc(=O)oc2c1)Cc1ccccc1 , MIC read as 21.2

Notebook: CCN(CC)CCOc1ccc2ccc(=O)oc2c1 , MIC read as 16.8

Notebook: CC(=O)c1c(OCCN(C)Cc2ccccc2)ccc2c(C)cc(=O)oc12 , MIC read as 35.7

Notebook: CC(=O)c1c(OCCN2CCCCC2)ccc2c(C)cc(=O)oc12 , MIC read as 13
